# Tested on: SK-BR-3
# assay-explanation: normalised response (% of control), CellTiter-Glo; higher = more viable cells (100 = DMSO, 0 = benzethonium chloride kill control)
# assay-context: incubation time: 72 h
attribute-measured: normalised response (%)

compound="CNC(=O)c1cccc(-c2ccc3c(N4CCOC[C@@H]4C)nc(N4CCOC[C@@H]4C)nc3n2)c1 [AZD2014] (100 nM)" value=64.7
compound="COCC[n+]1c2c(n(Cc3cnccn3)c1C)C(=O)c1ccccc1C2=O [YM155] (100 nM)" value=4.6
compound="c1ccc2c(CCNc3ccc(Nc4ccncc4)cc3)c[nH]c2c1 [Serdemetan] (100 nM)" value=98.3

====

# Test system: MDA-MB-231
# assay-explanation: normalised viability (% of control), CellTiter-Blue; higher = more viable cells (about 100 = DMSO control)
# assay-context: 1000 nM; incubation time: 72 h
Lab note: anything with normalised viability below 90% is marked True; values at 90% or higher are marked False.

compound=CC(C)C[C@@H](C(=O)N[C@H](C(=O)OC1CCCC1)c1ccccc1)[C@H](O)C(=O)NO discrete_label=True
compound=C=C1C[C@@H]2[C@H](CC[C@]3(C)C(=O)CC[C@@H]23)[C@@]2(C)C=CC(=O)C=C12 discrete_label=False
compound=Nc1cc(C(F)(F)F)c(-c2cc(N3CCOCC3)nc(N3CCOCC3)n2)cn1 discrete_label=True
compound=N#Cc1ccc(COC[C@H]2O[C@@H](n3c(NCc4ccc(Cl)c(Cl)c4)nc4c(N)ncnc43)[C@H](O)[C@@H]2O)cc1 discrete_label=True
compound=Oc1ccc2c(c1)CC[C@H](c1ccccc1)[C@@H]2c1ccc(OCCN2CCCC2)cc1 discrete_label=False
compound="COCC1(CO)C(=O)C2CCN1CC2 (stereo not given)" discrete_label=False
compound=COCC[n+]1c2c(n(Cc3cnccn3)c1C)C(=O)c1ccccc1C2=O discrete_label=True

====

# Tested on: Hs578T
# assay-explanation: normalised viability (% of control), CellTiter-Blue; higher = more viable cells (about 100 = DMSO control)
# assay-context: 10000 nM; incubation time: 72 h
Consider the following molecules and their measured normalised viability readings.
attribute-measured: normalised viability (%)

molecule="NC(=O)c1ccc(I)c([N+](=O)[O-])c1 [Iniparib]" test_system=Hs578T attribute_measured="normalised viability" value=109
molecule="c1ccc2c(CCNc3ccc(Nc4ccncc4)cc3)c[nH]c2c1 [Serdemetan]" test_system=Hs578T attribute_measured="normalised viability" value=66.8
molecule=N#Cc1ccc(COC[C@H]2O[C@@H](n3c(NCc4ccc(Cl)c(Cl)c4)nc4c(N)ncnc43)[C@H](O)[C@@H]2O)cc1 test_system=Hs578T attribute_measured="normalised viability" value=73.8
molecule="C=C1C[C@@H]2[C@H](CC[C@]3(C)C(=O)CC[C@@H]23)[C@@]2(C)C=CC(=O)C=C12 [Exemestane]" test_system=Hs578T attribute_measured="normalised viability" value=100

====

# System: HDQ-P1
# assay-explanation: normalised response (% of control), CellTiter-Glo; higher = more viable cells (100 = DMSO, 0 = benzethonium chloride kill control)
# assay-context: incubation time: 72 h
Consider the following compounds and their measured normalised response readings.
attribute-measured: normalised response (%)

compound="CN(C)CCOc1ccc(/C(=C(/CCCl)c2ccccc2)c2ccccc2)cc1 [Toremifene] (100 nM)" quantity_unit=% value=98.2
compound="COc1cc(OC2CCN(C)CC2)ccc1Nc1ncc2c(n1)n(C1CCCC1)c(=O)n2C [AZ 3146] (100 nM)" quantity_unit=% value=98.7
compound="CNC(=O)c1ccc(N2C(=S)N(c3ccc(C#N)c(C(F)(F)F)c3)C(=O)C23CCC3)cc1F [RD162] (100 nM)" quantity_unit=% value=99.7
compound="CNC(=O)c1ccc(N2C(=S)N(c3ccc(C#N)c(C(F)(F)F)c3)C(=O)C2(C)C)cc1F [Enzalutamide] (100 nM)" quantity_unit=% value=97.4
compound="O=C(/C=C/c1cccc(S(=O)(=O)Nc2ccccc2)c1)NO [Belinostat] (100 nM)" quantity_unit=% value=83.7
compound="COCC[n+]1c2c(n(Cc3cnccn3)c1C)C(=O)c1ccccc1C2=O [YM155] (100 nM)" quantity_unit=% value=1.96
